// reported growth AUC for each item listed
Tested on: Collinsella aerofaciens
PROTOCOL NOTES: growth AUC relative to DMSO control (median of replicates) (fraction); higher = more growth (less inhibition), active = hit call of the paper
STATED CONDITIONS: 20 µM; 24 h
Give the figure by itself; no unit, no explanation.

Observe how each entry below is paired with its result.
Entry CCN(CC)c1c([N+](=O)[O-])cc(C(F)(F)F)c(N)c1[N+](=O)[O-] — recorded growth AUC = 1

Recorded growth AUC (compound CCCN(CCC)c1c([N+](=O)[O-])cc(C(F)(F)F)cc1[N+](=O)[O-] ): 1.01

# growth AUC (compound: CC(C)CC(C)c1sccc1NC(=O)c1cn(C)nc1C(F)(F)F (stereo unspecified) ) is 0.99

---
Input CCCCCCCC(=O)Oc1c(I)cc(C#N)cc1I . Output growth AUC: 0.989

Consider CN(C)NC(=O)CCC(=O)O . Its measured growth AUC is 1

// growth AUC value for CCC(C)(NC(=O)c1cc(Cl)c(C)c(Cl)c1)C(=O)CCl (stereo unspecified) : 1

---

The entries below come with measured growth AUC values attached.
Tested on: Lactobacillus paracasei
PROTOCOL NOTES: growth AUC relative to DMSO control (median of replicates) (fraction); higher = more growth (less inhibition), active = hit call of the paper
STATED CONDITIONS: 20 µM; 24 h
Format: numeric value only, no unit, no commentary.

Previously resolved entries follow.
Given item COC(=O)C(C)N(C(=O)Cc1ccccc1)c1c(C)cccc1C (configuration not stated) , the value recorded as its growth AUC is 0.98

growth AUC reported for this compound ClC1=C(Cl)C2(Cl)[C@H]3[C@H]4O[C@H]4[C@H](Cl)[C@H]3C1(Cl)C2(Cl)Cl (single isomer, unassigned; isomer a) : 0.991

Quick note, growth AUC for COP(=S)(OC)Oc1ccc(S(=O)(=O)N(C)C)cc1 landed at 0.935

So, C#CCOc1ccc(CCNC(=O)C(OCC#C)c2ccc(Cl)cc2)cc1OC (configuration not stated) ? Its growth AUC was 0.98

CCOP(=S)(OCC)SCCSCC has a reported growth AUC of 1.1

Further cases:
// field: growth AUC; key: CC(=NCc1ccc(Cl)nc1)NC#N ; value = 1.03

Given item CN(C)C1CSSSC1.O=C(O)C(=O)O , the value recorded as its growth AUC is 0.972

The value of growth AUC measured for the compound ClCC1C(CCl)C2(Cl)C(Cl)=C(Cl)C1(Cl)C2(Cl)Cl (configuration not stated) turned out to be 0.974

GET /value?item= CCOP(=S)(OCC)SCSc1ccc(Cl)cc1 &field=growth AUC returns 1

---

Tested on: Lactobacillus gasseri
PROTOCOL NOTES: growth AUC relative to DMSO control (median of replicates) (fraction); higher = more growth (less inhibition), active = hit call of the paper
STATED CONDITIONS: 20 µM; 24 h
Item-by-item account of growth AUC
// no unit string in output, number only

The compound CCCCc1c(C)nc(N(C)C)[nH]c1=O , tested on Lactobacillus gasseri, showed growth AUC of 1

Value (growth AUC, Lactobacillus gasseri) for record COP(=S)(OC)Oc1ccc(S(C)=O)c(C)c1 (stereo not drawn) = 1.02

Lab note: next compound to report on.
The measured growth AUC that COP(=O)(OC)C(O)C(Cl)(Cl)Cl (stereo not drawn) showed for Lactobacillus gasseri is 1

---

System: Lactobacillus paracasei
PROTOCOL NOTES: growth AUC relative to DMSO control (median of replicates) (fraction); higher = more growth (less inhibition), active = hit call of the paper
STATED CONDITIONS: 20 µM; 24 h
VALUE TYPE: growth AUC
Keep the answer to the number alone.

These solved cases illustrate the format of a correct answer.
Briefly, growth AUC measured for COC(=O)c1ccccc1S(=O)(=O)NC(=O)Nc1nc(C)nc(OC)n1 : 0.933

Field growth AUC (entry CCN(C(=O)n1nnn(-c2ccccc2Cl)c1=O)C1CCCCC1 ) reads 0.827

Summary for this compound, Nc1cc(Cl)cc(C(=O)O)c1Cl : growth AUC is 1.03

***
So, Nc1nc(N)nc(Cl)n1 ? Its growth AUC was 0.991

Quick note, growth AUC for CC(C)=CC1C(C(=O)OC(C#N)c2cccc(Oc3ccccc3)c2)C1(C)C (mixture of isomers) landed at 1.23

Documented growth AUC of O=C1C=C(N(Cc2ccc(Cl)nc2)CC(F)F)CO1 : 0.869

The recorded growth AUC for entry CC(C)N(C(=O)SCC(Cl)=C(Cl)Cl)C(C)C equals 1

Please fill in: growth AUC reported for Clc1ccccc1-c1nnc(-c2ccccc2Cl)nn1 = 0.79

Reported growth AUC ( COc1cc(OC)nc(Sc2cccc(Cl)c2C(=O)O)n1 ) = 0.971

Entry CC1=C(C(=O)Nc2ccccc2)SCCO1 ; growth AUC = 1.04

Consider CCCCCCCCCCCCCN1CC(C)OC(C)C1 (stereo not drawn) . Its measured growth AUC is 1.08

GET /value?item= CN(C)C(=O)Nc1ccc(Cl)cc1 &field=growth AUC returns 1.03

Given item O=C1C(Cl)=C(Cl)C(=O)c2ccccc21 , the value recorded as its growth AUC is 0.941

Field growth AUC (entry Clc1ccc(Cl)c(Cl)c1 ) reads 0.943

Looking up N#Cc1cc(I)c(O)c(I)c1 , I see its growth AUC listed as 0.982

Per the records, this compound ( O=C(O)c1cc(Oc2ccc(C(F)(F)F)cc2Cl)ccc1[N+](=O)[O-] ) has growth AUC equal to 0.966

For this compound ( COC(=O)NCc1cc(/C(C)=N/OCc2cccc(C)n2)ccc1Cl ), measured growth AUC is 0.969

Value of growth AUC reported for the compound CCNc1nc(NC(C)C)[nH]c(=O)n1 is 0.963

# compound COc1cccc(C(=O)NN(C(=O)c2cc(C)cc(C)c2)C(C)(C)C)c1C ; its growth AUC = 0.947

Entry CCOP(=S)(OCC)OP(=S)(OCC)OCC , growth AUC reported as 1.04

The recorded growth AUC for CCOP(=S)(OCC)Oc1nc(Cl)n(C(C)C)n1 is 0.954

Item: CCc1cccc(C)c1N(C(=O)CCl)C(C)COC (stereo not drawn) | growth AUC: 1.02

Kindly note the recorded growth AUC for COP(=S)(OC)Oc1ccc([N+](=O)[O-])c(C)c1 , which is 1.01

---

Tested on: Clostridium difficile
PROTOCOL NOTES: growth AUC relative to DMSO control (median of replicates) (fraction); higher = more growth (less inhibition), active = hit call of the paper
STATED CONDITIONS: 20 µM; 24 h
# maps each entry to its growth AUC

growth AUC measured on CC(Oc1ccc(Oc2ccc(C(F)(F)F)cn2)cc1)C(=O)O (stereo unspecified) = 0.917 (inactive)

growth AUC reading for CCCCCCCCCCCCC1=C(OC(C)=O)C(=O)c2ccccc2C1=O : 0.926 (inactive)

growth AUC reading for Cc1c(N)cccc1N : 1 (inactive)

Reported growth AUC ( CC(C)Oc1cc(-n2nc(C(C)(C)C)oc2=O)c(Cl)cc1Cl ) = 0.932 (inactive)

Measured growth AUC, COP(=S)(OC)Oc1c(Cl)cc(C)cc1Cl : 0.985 (inactive)

Kindly review the next molecule as well.
growth AUC reading for CN=C=S : 1.01 (inactive)

---

Tested on: Escherichia coli ED1a
PROTOCOL NOTES: growth AUC relative to DMSO control (median of replicates) (fraction); higher = more growth (less inhibition), active = hit call of the paper
STATED CONDITIONS: 20 µM; 24 h
Below: a set of entries, each annotated with reported growth AUC.
Number only, no unit.

// assay Escherichia coli ED1a, entry Cc1cc(C2CC2)nc(Nc2ccccc2)n1 , growth AUC value = 0.984

---

Recorded measurements of growth AUC, one per entry
Test system: Escherichia coli IAI1
PROTOCOL NOTES: growth AUC relative to DMSO control (median of replicates) (fraction); higher = more growth (less inhibition), active = hit call of the paper
STATED CONDITIONS: 20 µM; 24 h
Answer with the value's number alone.

# example entries with known answers
The compound listed as Oc1ccc(Cl)cc1Cl shows growth AUC equal to 0.979

Memo: CCOc1cc(OP(=S)(OC)OC)nc(CC)n1 , reported growth AUC: 1.01

In plain terms, CC(C)(C)[C@@H](O)[C@H](Oc1ccc(Cl)cc1)n1cncn1 has a documented growth AUC of 0.999

---
So, O=C(O)COc1nc(Cl)c(Cl)cc1Cl ? Its growth AUC was 1.01

---

System: Akkermansia muciniphila
PROTOCOL NOTES: growth AUC relative to DMSO control (median of replicates) (fraction); higher = more growth (less inhibition), active = hit call of the paper
STATED CONDITIONS: 20 µM; 24 h
growth AUC of 0.9 or higher: True. Under 0.9: False.

These solved cases illustrate the format of a correct answer.
Test whether the molecule CC1(C)C(C=C(Cl)Cl)[C@@H]1C(=O)O[C@@H](C#N)c1ccc(F)c(Oc2ccccc2)c1 (some centres undefined) records growth AUC of 0.9 or higher. True

Could you please find out whether COC(=O)C(C)N(C(=O)c1ccco1)c1c(C)cccc1C (centres undefined) has growth AUC that meets 0.9 or exceeds it? True

Has CCCCOCN(C(=O)CCl)c1c(CC)cccc1CC a recorded growth AUC greater than or equal to 0.9? True

Is growth AUC for CCS(=O)c1c(C#N)nn(-c2c(Cl)cc(C(F)(F)F)cc2Cl)c1N (centres undefined) at or above 0.9? True

hey, is growth AUC for this one >= 0.9? CC(C)=NOCCOC(=O)[C@@H](C)Oc1ccc(Oc2cnc3cc(Cl)ccc3n2)cc1 False

***
hey, is growth AUC for this one >= 0.9? CN(C)C(=O)Nc1ccc(Cl)cc1 True

Item CCC(C)Nc1c([N+](=O)[O-])cc(C(C)(C)C)cc1[N+](=O)[O-] (centres undefined) with growth AUC of 0.9 or above? True

Could you tell me if the measured growth AUC of Nc1c(Cl)c(Cl)c(Cl)c(Cl)c1Cl reaches 0.9 or more? False

Value source: the supplement of paper PMC12669032
